Biological target: bovine serum amine oxidase (BSAO) (Bos taurus, UniProt Q29437)
Sequence (Q29437 17-762): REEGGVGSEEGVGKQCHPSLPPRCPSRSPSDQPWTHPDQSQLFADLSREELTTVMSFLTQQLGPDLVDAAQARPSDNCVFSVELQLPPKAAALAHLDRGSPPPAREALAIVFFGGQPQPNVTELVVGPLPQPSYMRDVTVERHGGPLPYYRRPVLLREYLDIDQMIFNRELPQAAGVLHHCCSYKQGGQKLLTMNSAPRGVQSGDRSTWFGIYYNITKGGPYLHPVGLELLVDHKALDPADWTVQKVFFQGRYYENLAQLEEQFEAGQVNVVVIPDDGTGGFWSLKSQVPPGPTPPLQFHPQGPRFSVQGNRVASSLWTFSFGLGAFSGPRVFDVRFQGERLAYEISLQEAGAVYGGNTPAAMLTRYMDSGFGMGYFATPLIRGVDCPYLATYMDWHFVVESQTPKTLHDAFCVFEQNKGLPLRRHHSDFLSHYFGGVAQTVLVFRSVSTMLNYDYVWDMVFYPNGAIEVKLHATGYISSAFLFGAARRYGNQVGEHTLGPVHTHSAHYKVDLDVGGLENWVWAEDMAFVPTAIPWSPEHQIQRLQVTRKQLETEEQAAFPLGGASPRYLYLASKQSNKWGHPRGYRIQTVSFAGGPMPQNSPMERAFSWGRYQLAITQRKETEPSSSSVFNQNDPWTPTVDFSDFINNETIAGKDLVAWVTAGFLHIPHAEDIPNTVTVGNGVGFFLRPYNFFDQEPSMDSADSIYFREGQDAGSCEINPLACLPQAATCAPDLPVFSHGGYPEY
Test: DCHBS/AAP peroxide-coupled kinetic assay with spermidine as substrate, Morrison tight-binding fit
property-name: Ki

[[record]]
molecule = "N=C(N)NCCCCCCCN [GC7]"
property_name = "Ki"
experimental_value = "308 nM"

